assay: Plasma concentrations of tamoxifen and its metabolites in breast cancer patients on tamoxifen, by HPLC-tandem mass spectrometry; conditions: genotype SULT1E1 *2/*2, n = 5
Reported plasma concentration, mean ±SD values follow for various compounds
MEASURED_PROPERTY: plasma concentration, mean ±SD (ng/mL)

>  <COMPOUND>
CC/C(=C(\c1ccccc1)c1ccc(OCCN(C)C)cc1)c1ccccc1 [Tamoxifen, reference compound]

>  <MEASURED_PROPERTY>
plasma concentration, mean ±SD

>  <UNIT_STRING>
ng/mL

>  <OBSERVED_VALUE>
232.36

$$$$
>  <COMPOUND>
CC/C(=C(\c1ccccc1)c1ccc(OCCNC)cc1)c1ccccc1

>  <MEASURED_PROPERTY>
plasma concentration, mean ±SD

>  <UNIT_STRING>
ng/mL

>  <OBSERVED_VALUE>
455.57

$$$$
>  <COMPOUND>
CC/C(=C(\c1ccccc1)c1ccc(OCC[N+](C)(C)[O-])cc1)c1ccccc1 [Tamoxifen-N-oxide, tamoxifen-N-oxide]

>  <MEASURED_PROPERTY>
plasma concentration, mean ±SD

>  <UNIT_STRING>
ng/mL

>  <OBSERVED_VALUE>
49.86

$$$$
>  <COMPOUND>
CC/C(=C(\c1ccc(O)cc1)c1ccc(OCCNC)cc1)c1ccccc1 [Endoxifen, N-desmethyl-4-hydroxy-tamoxifen]

>  <MEASURED_PROPERTY>
plasma concentration, mean ±SD

>  <UNIT_STRING>
ng/mL

>  <OBSERVED_VALUE>
16.05

$$$$
